Origin of the recorded values: patent US20180371107A1

# TESTED SYSTEM: T1, human NSP4 (hNSP4), form not stated in Example 6 (human, UniProt Q6UWY2 34-283, limits assumed)
# T1 sequence (looked up): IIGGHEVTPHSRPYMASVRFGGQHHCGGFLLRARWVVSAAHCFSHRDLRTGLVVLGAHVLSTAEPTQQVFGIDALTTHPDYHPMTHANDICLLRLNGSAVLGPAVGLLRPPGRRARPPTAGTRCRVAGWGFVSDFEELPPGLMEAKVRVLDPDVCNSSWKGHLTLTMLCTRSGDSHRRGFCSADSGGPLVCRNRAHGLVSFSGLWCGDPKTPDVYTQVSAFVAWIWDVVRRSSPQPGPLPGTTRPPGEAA
# PROTOCOL NOTES: phage competition binding assay (phage IC50), soluble hNSP4 competitor
EXPERIMENTAL READOUT: IC50 (nM)
# value in nM; strip the unit string

Briefly, IC50 measured for affinity matured anti-NSP4 antibody clone 35.62 (Fab, V domains shown) VH: EVQLVESGGGLVQPGGSLRLSCAASGFTFSDNDISWVRQAPGKGLEWVGSISPDNGDTNYADSVKGRFTISADTSKNTAYLQMNSLRAEDTAVYYCARDDVPAVFTSAMDYWGQGTLVTVSS VL: DIQMTQSPSSLSASVGDRVTITCRASQDVSTAVAWYQQKPGKAPKLLIYSASFLYSGVPSRFSGSGSGTDFTLTISSLQPEDFATYYCQQSAGFPLTFGQGTKVEIKR : 25.7
